Data origin: ChEMBL document CHEMBL1201862

Would you kindly list GI50 for each of these molecules?
Test system: RPMI-8226
protocol: NCI tumour cell line growth inhibition, 48 h
Activity calls are given as the source filed them. Cut-off read from the data, not from the text of the source: active = GI50 up to about 1.1 µM and inactive = higher.

// query GI50 value for entry O=C(COc1ccc(OCC(=O)N2C(=O)CC/C2=N\c2ccc(Cl)cc2)cc1)N1C(=O)CS/C1=N\c1ccc(Cl)cc1
46.1 µM (inactive)

One more molecule: O=C(NNC(=O)c1ccccc1O)c1cccs1
> 100 µM (inactive)

One more molecule: Oc1ccc([I+]c2ccccc2)cc1O
12 µM (inactive)

One more molecule: CCOC(=O)NN(C(=O)OCC)C(=C(c1ccccc1)N1CCOCC1)N(NC(=O)OCC)C(=O)OCC
> 100 µM (inactive)

One more molecule: COC(=O)C(=O)C(C(=O)C1=NS(=O)(=O)c2cc(S(N)(=O)=O)c(Cl)cc2N1)c1nc2ccc(C(=O)c3ccccc3)cc2nc1O (stereo not given)
> 100 µM (inactive)

###

Test system: SK-OV-3
protocol: NCI tumour cell line growth inhibition, 48 h
Calls of active or inactive are those of the source. Rule as the data show it: active = GI50 up to about 1.1 µM and inactive = higher.
Would you kindly list GI50 for each of these molecules?

// query GI50 value for entry Cc1ccc(S(=O)(=O)NNC(=O)c2cc(C)ccc2NC(=O)C23CC4CC(CC(C4)C2)C3)cc1
22.6 µM (inactive)

One more molecule: OCC1OC(n2cnc3c(Cl)nc(Nc4ccc(Cl)c(Cl)c4)nc32)CC1O (stereo unspecified)
13.6 µM (inactive)

One more molecule: O=C(NNC(=O)c1ccccc1O)c1cccs1
24.4 µM (inactive)

One more molecule: O=C(COc1ccc(OCC(=O)N2C(=O)CC/C2=N\c2ccc(Cl)cc2)cc1)N1C(=O)CS/C1=N\c1ccc(Cl)cc1
> 100 µM (inactive)

One more molecule: COC(=O)C1C(O)CC(c2ccccn2)N(Cc2ccccc2)C1c1ccccn1 (stereo unspecified)
> 100 µM (inactive)

One more molecule: NC(=O)NC1C(c2ccccc2)=C1c1ccccc1
15.6 µM (inactive)

One more molecule: O=C(/C=C/c1cc(O)c(O)cc1O)OCCc1ccccc1
26.8 µM (inactive)

One more molecule: COC[C@@H](/N=C/c1ccc(OC)cc1)C(C)C
> 100 µM (inactive)

One more molecule: CC(C)(C)c1cc2ccc(C(N)=O)cc2c(=O)[nH]1
> 100 µM (inactive)

One more molecule: N#Cc1cc(-c2nc3ccc(F)cc3s2)ccc1N
21.8 µM (inactive)

One more molecule: C=CNC(=S)n1nc(-c2ccccc2NC(=O)C(F)(F)F)c(=O)n(C(=S)NC=C)c1=S
30.3 µM (inactive)

###

System: SK-MEL-2
protocol: NCI tumour cell line growth inhibition, 48 h
Calls of active or inactive are those of the source. No stated cut-off is given here; in the data, active = GI50 up to about 1.1 µM and inactive = higher.
endpoint.label: GI50

// query GI50 value for entry CC(=O)c1cccc(Nc2c3ccccc3nc3occc23)c1
2.74 µM (inactive)

One more compound: NC(CC(=O)Nc1cc(C(F)(F)F)ccc1Cl)=NO
> 100 µM (inactive)

One more compound: CCc1cccc(CC)c1NC(=O)/C(Cl)=C(/Cl)C(=O)O
> 100 µM (inactive)

One more compound: CN(CCNC(=O)c1n[nH]c2c1ccc1ccccc12)CCNC(=O)c1n[nH]c2c1ccc1ccccc12
8.2 µM (inactive)

One more compound: CN(C)c1ccccc1CC(c1c[nH]c2ccccc12)c1c[nH]c2ccccc12
14.8 µM (inactive)

One more compound: CC1OC2OC3C(OCC(O)C3O)OC(=O)[C@]34CCC(C)(C)CC3C3=CCC5[C@@]6(C)C[C@H](O)[C@H](OC7OC(CO)C(O)C(O)C7OC7OCC(OC(=O)CC(C)(O)CC(=O)OC1C(OC1OC(CO)C(O)C(O)C1O)C2O)C(O)C7O)[C@@](C)(CO)C6CC[C@@]5(C)[C@]3(C)CC4 (stereo partly specified)
4.18 µM (inactive)

One more compound: O=C1CCC2SC1CCC2=O
> 100 µM (inactive)

One more compound: O=C1C=CC(=O)N1c1ccc2c(c1)Cc1cc(NC(=O)C(F)(F)F)ccc1-2
18.4 µM (inactive)

One more compound: Cc1ccc(Nc2ccc(Nc3ccc(C)cc3)c3c2C(=O)c2c(O)ccc(O)c2C3=O)cc1
> 100 µM (inactive)

One more compound: O=c1[nH]c(Cc2ccccc2)nc2c1sc1nc3ccccc3n12
> 100 µM (inactive)

One more compound: COc1ccc(Nc2nc3ccc(C(F)(F)F)cc3nc2C(=O)O)cc1
43.9 µM (inactive)
